# assayedTarget: T1, Transmembrane-4 L six family member-1 (TM4SF1) (human, UniProt P30408 1-202, limits assumed)
# T1 construct: also called hTM4SF1; human TM4SF1
# T1 sequence: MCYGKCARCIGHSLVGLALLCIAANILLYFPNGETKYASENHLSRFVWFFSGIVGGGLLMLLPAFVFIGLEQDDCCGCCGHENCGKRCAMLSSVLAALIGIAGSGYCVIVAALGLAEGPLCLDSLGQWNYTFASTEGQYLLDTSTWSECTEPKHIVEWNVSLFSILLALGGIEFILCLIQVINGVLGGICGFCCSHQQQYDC
# assayMethodText: antibody screen (method not described in this filing)
measure: binding result

1. monoclonal murine antibody AGX-A04 (antibody, V domains shown, Murine monoclonal antibody) VH: EVQLQQSGPELVKPGASVKISCKTSGYTFTDYTMHWVRQSHGKSLEWIGSFNPNNGGLTNYNQKFKGKATLTVDKSSSTVYMDLRSLTSEDSAVYYCTRIRATGFDSWGQGTTLTVSS VL: DIVMSQSPSSLAVSAGEKVTMSCKSSQSLLNSRTRKNYLAWYQQKPGQSPKLLIYWASTRESGVPDRFTGSGSGTDFTLTISNVQAEDLTVYYCKQSYNPPWTFGGGTKLEIK :: binds
2. monoclonal murine antibody AGX-A03 (antibody, V domains shown, Murine monoclonal antibody) VH: QIQLVQSGPELKKPGETVKISCKASGYSFRDYGMNWVKQAPGRTFKWMGWINTYTGAPVYAADFKGRFAFSLDTSASAAFLQINNLKNEDTATYFCARWVSYGNNRNWFFDFWGAGTTVTVSS VL: DVLMTQTPLSLPVRLGDQASISCRSSQTLVHSNGNTYLEWYLQKPGQSPKLLIYKVSNRLSGVPDRFSGSGSGTDFTLKISRVETEDLGVYYCFQGSHGPWTFGGGTKLEIK :: binds
3. monoclonal murine antibody AGX-A05 (antibody, V domains shown, Murine monoclonal antibody) VH: EVQVQQSGPELVKPGASVKMSCKASGYTFTSYVMHWVKQKPGQGLEWIGYINPNNDNINYNEKFKGKASLTSDKSSNTVYMELSSLTSEDSAVYYCAGYGNSGANWGQGTLVTVSA VL: DIQMTQSPASLSASVGETVTITCRTSKNIFNFLAWYHQKQGRSPRLLVSHTKTLAAGVPSRFSGSGSGTQFSLKINSLQPEDFGIYYCQHHYGTPWTFGGGTKLEIK :: binds
